tgt: Shiga toxin 2 (Escherichia coli O157:H7) (UniProt P09385+P09386)
assay-name: E. coli 0.157:H7 Shiga Toxin SOP - stx2 screening assay
Type: functional
Set-up: scale not given: direction of the effect not stated beside the values
experimental-context: 30 µM
Assign Percent Effect to each entry below.
Numbers only, in %.

Consider the worked cases shown below.
CCOc1cc(C(=O)N2CCCC(c3noc(C)n3)C2)ccn1 (centres undefined): 28.1
CN(CCO)C[C@@H]1CN(C(=O)c2c(F)cccc2Cl)C[C@@H]1CO: -49
COCCn1cc(C(=O)N2CCCC2c2cccc(F)c2)ccc1=O (centres undefined): -4.86
O=C1CC(c2ccccc2)C2(CCN(Cc3ccccn3)CC2)N1 (centres undefined): -17.4
Cn1ccnc1CNC(=O)N(CCCO)C1CCCc2ccccc21 (centres undefined): 1.57

# per-item lookup of Percent Effect; items listed below
1. Cc1noc(C)c1C(=O)N1CC[C@H]2C[C@@H](c3nccs3)O[C@@H]2C1
2. Cc1nn(C)c2c(=O)n(CC(=O)Nc3cc(Cl)cc(Cl)c3)nnc12
3. CN(CCCNC(=O)N1CCCC1c1ccsc1)c1ccccn1 (centres undefined)
4. CC(C)N(C)Cc1nnc2n1CCN(Cc1ccncc1)CC2
5. COC(=O)c1ccoc1COC(=O)CCc1ccc(OC)c(OC)c1
6. COc1ccccc1S(=O)(=O)Nc1ccc2c(C(=O)O)c[nH]c2c1
7. NC(=O)CC1CCN(C(=O)CCOc2ccc(Cl)cc2)CC1

A)
1: 3.87; 2: -36.8; 3: -79.8; 4: 1.49; 5: 0.432; 6: 12.9; 7: 32.7

# per-item lookup of Percent Effect; items listed below
1. CCNC(=O)CCc1c(C)nc2cc(O)nn2c1C
2. CC(C)c1nc(CN(C)C2CCN(Cc3nc(C4CC4)no3)C2)no1 (centres undefined)
3. O=C1COc2cc(C(=O)NS(=O)(=O)c3ccccc3F)ccc2N1
4. CC(NC(=O)NCCCn1ccnc1)c1ccc2c(c1)CCC(=O)N2 (centres undefined)
5. Cc1nc(C2CCCN(C(=O)c3cnn(C(C)(C)C)c3)C2)no1 (centres undefined)
6. Cc1nc(CCNC(=O)C2CC(=O)N(C(C)(C)C)C2)sc1C (centres undefined)
7. CC(C)N1Cc2c(C(=O)N3CCOCC3)nn(C)c2C1
8. COc1cccc(CN2CCCCCC2c2cccs2)c1O (centres undefined)

A)
[-21.5, -26.4, 0.482, -22.9, -34.6, -3.12, 5.36, -75.8]

# per-item lookup of Percent Effect; items listed below
1. CCOC(=O)c1sc2ccsc2c1CN
2. O=C(CN1CCOC(Cn2cccn2)C1)NCCc1ccc(F)cc1 (centres undefined)
3. CN1CCN(c2ncc3c(=O)n(-c4cccc(F)c4)c(=O)[nH]c3n2)CC1
4. O=C(Cn1ccc2c(Cl)cccc21)N[C@@H](C(=O)O)c1ccccc1

A)
42.1
12
-20.7
-13.8

Every entry's value here was drawn from ChEMBL document CHEMBL3988442.
